TESTED_TARGET: PIK3CG (UniProt P48736)
Sequence (P48736 whole entry, looked up): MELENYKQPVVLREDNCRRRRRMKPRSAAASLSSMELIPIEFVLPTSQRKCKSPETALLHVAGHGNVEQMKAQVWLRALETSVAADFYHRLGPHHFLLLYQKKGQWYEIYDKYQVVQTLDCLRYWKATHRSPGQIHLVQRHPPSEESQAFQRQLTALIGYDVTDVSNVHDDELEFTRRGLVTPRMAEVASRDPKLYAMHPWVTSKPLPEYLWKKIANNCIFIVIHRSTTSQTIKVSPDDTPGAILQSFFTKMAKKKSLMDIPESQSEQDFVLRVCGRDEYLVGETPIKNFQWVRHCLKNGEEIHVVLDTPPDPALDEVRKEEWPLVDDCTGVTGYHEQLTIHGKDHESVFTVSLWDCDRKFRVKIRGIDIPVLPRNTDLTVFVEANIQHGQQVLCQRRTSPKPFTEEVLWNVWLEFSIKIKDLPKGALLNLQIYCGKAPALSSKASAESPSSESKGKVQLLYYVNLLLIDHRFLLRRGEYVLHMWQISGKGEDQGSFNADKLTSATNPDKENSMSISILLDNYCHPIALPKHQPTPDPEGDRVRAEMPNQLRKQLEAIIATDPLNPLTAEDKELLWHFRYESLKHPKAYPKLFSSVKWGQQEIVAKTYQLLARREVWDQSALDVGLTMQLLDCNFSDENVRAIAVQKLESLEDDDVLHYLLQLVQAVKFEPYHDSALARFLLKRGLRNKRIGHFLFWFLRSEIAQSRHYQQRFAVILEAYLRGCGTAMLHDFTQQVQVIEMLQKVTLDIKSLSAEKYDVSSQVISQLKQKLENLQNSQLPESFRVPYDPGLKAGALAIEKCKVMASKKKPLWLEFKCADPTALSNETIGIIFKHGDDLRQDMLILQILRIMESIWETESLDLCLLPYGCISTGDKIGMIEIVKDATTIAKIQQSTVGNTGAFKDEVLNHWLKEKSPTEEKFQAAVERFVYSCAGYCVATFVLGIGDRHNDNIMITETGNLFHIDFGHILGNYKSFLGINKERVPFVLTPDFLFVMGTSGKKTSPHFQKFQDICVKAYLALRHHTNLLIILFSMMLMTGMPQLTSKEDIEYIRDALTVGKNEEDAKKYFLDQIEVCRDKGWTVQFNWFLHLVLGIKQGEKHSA
MEASURED_PROPERTY: pIC50
Numbers only, as −log10 of the molar value.

// known answers, use as guide
# input Please look up its pIC50: "O=C1NC(=S)S/C1=C\c1ccc2c(c1)N(C(=O)COCc1ccccc1)CCCO2"
# output 5.78

# input What does the record list as pIC50 for "O=C1NC(=S)S/C1=C\c1ccc2c(c1)N(C(=O)c1ccc3occc3c1)CCCO2" ?
# output 5.82

# input Data request, read-out pIC50, for "O=C1NC(=S)S/C1=C\c1ccc2c(c1)N(C(=O)Oc1ccccc1)CCCO2"
# output 6.37

# input Looking for the measured pIC50 of "CC1(C)C2CCC1(CS(=O)(=O)N1CCOc3ccc(/C=C4\SC(=S)NC4=O)cc31)CC2" , can you help?
# output 6.48

# input Data request, read-out pIC50, for "Cc1oc(C(C)(C)C)cc1C(=O)N1CCCOc2ccc(/C=C3\SC(=S)NC3=O)cc21"
# output 5.34

# input For the molecule shown here, "O=C1NC(=S)S/C1=C\c1ccc2c(c1)N(C(=O)Cc1cccs1)CCCO2" , give the reported pIC50.
# output 5.95

# input Could you tell me which pIC50 is on file for "O=C1NC(=S)S/C1=C\c1ccc2c(c1)N(C(=O)c1ccc(Cl)c(Cl)c1)CCCO2" ?
# output 5.86

# input molecule: "N#Cc1ccc(C(=O)N2CCCOc3ccc(/C=C4\SC(=S)NC4=O)cc32)cc1" ; wanted: its pIC50
# output 5.58

As a next step, examine the molecule that follows.
# input Dear colleague, I am looking for the recorded pIC50 of the following molecule: "Cc1cc(C)cc(CN2CCOc3ccc(/C=C4\SC(=S)NC4=O)cc32)c1"
# output 6.19

Origin of values: the Kinase Knowledgebase extract (Sharma et al. 2016)
